B1: TPR t1 (parent)
chain: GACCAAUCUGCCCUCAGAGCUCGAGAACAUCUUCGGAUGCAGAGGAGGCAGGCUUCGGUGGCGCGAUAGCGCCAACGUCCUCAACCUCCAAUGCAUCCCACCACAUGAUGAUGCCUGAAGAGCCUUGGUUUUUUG

- Variants of: B1
- testMethodNotes: polymerase ribozyme fitness, log enrichment relative to wild type (log ratio); higher = more active; in vitro selection for triplet polymerase activity
readoutType: polymerase ribozyme fitness (log ratio)

mutationId	readoutType	numericReadout
U38C G57U G117C	polymerase ribozyme fitness (log ratio)	-5.11
G71C A90U G122A C123U	polymerase ribozyme fitness (log ratio)	-3.12
A5U C53A C62A G110U U130C	polymerase ribozyme fitness (log ratio)	-4.41
C88U U112G	polymerase ribozyme fitness (log ratio)	0.74
C11G C12U A50G G71A U133G	polymerase ribozyme fitness (log ratio)	-4.01
C53G A68G U87G	polymerase ribozyme fitness (log ratio)	-4.16
C56A C115U U130A	polymerase ribozyme fitness (log ratio)	-1.24
C8U U38G G51A	polymerase ribozyme fitness (log ratio)	-3.4
G60A C88G G113A	polymerase ribozyme fitness (log ratio)	-2.28
G57A G69U	polymerase ribozyme fitness (log ratio)	-0.426
G47A G60U G93C C101A	polymerase ribozyme fitness (log ratio)	-4.1
G48A C62A C73U	polymerase ribozyme fitness (log ratio)	-3.55
C8U C104G U106A C124G	polymerase ribozyme fitness (log ratio)	-3.63
A6U U112G U130A	polymerase ribozyme fitness (log ratio)	0.321
A83U G120U U130C	polymerase ribozyme fitness (log ratio)	-0.376
G52U C53U C62U C85U U129A	polymerase ribozyme fitness (log ratio)	-3.42
C13G G71C A84G C104A U109G G117U C124A U130G	polymerase ribozyme fitness (log ratio)	-6.92
G35A G69C	polymerase ribozyme fitness (log ratio)	-4.88
A24G U38G C56A C80A	polymerase ribozyme fitness (log ratio)	-5.92
G60U C89G U96G U129A	polymerase ribozyme fitness (log ratio)	-3.9
C124G G128C	polymerase ribozyme fitness (log ratio)	-0.216
A84U U112G	polymerase ribozyme fitness (log ratio)	0.742
C13U C72U U92C A105G	polymerase ribozyme fitness (log ratio)	-5.23
C12U U130G	polymerase ribozyme fitness (log ratio)	0.00659
G10U C114U	polymerase ribozyme fitness (log ratio)	-2.39
G23A A50U	polymerase ribozyme fitness (log ratio)	-5.56
A16U C82U	polymerase ribozyme fitness (log ratio)	-2.17
C40G C124U	polymerase ribozyme fitness (log ratio)	0.744
G113C	polymerase ribozyme fitness (log ratio)	-2.02
C11G C73U C114U	polymerase ribozyme fitness (log ratio)	-1.42
U78A C115G	polymerase ribozyme fitness (log ratio)	-2.13
A37C C56G U125A	polymerase ribozyme fitness (log ratio)	-1.58
C15G C53G C72A U81A G120C C123G	polymerase ribozyme fitness (log ratio)	-2.32
C15A C88U	polymerase ribozyme fitness (log ratio)	-2.17
C22G G51A U81A C115U U130A	polymerase ribozyme fitness (log ratio)	-5.32
A18C C20U A84C U96C G117U G127A	polymerase ribozyme fitness (log ratio)	-5.53
C8G C22U A43G C88U C97A C99U C101U C102G G110C	polymerase ribozyme fitness (log ratio)	-6.9
C72U C115U U129G	polymerase ribozyme fitness (log ratio)	-2.18
C56A G63A A91C	polymerase ribozyme fitness (log ratio)	-5.68
G48U A121U	polymerase ribozyme fitness (log ratio)	0.519
G127C U129C	polymerase ribozyme fitness (log ratio)	-2.22
A26C A83C	polymerase ribozyme fitness (log ratio)	-5.16
C13U U59A U81C	polymerase ribozyme fitness (log ratio)	-0.938
A6C A83C C97U G110A	polymerase ribozyme fitness (log ratio)	-1.92
G25A C73A	polymerase ribozyme fitness (log ratio)	-6.13
U9G G23U	polymerase ribozyme fitness (log ratio)	-6.6
